Recorded measurements of MIC, one per entry
system: Streptococcus pyogenes; test: Antimicrobial activity against Streptococcus pyogenes MTCC 443 by broth microdilution method; type: functional
Write your answer as a measured quantity: the number, then the unit.

Consider the following illustrative entries.
>  <CHEMICAL_SMILES>
CC1(C)S[C@@H]2[C@H](NC(=O)[C@H](N)c3ccccc3)C(=O)N2[C@H]1C(=O)O

>  <MIC>
100 µg/mL

$$$$
>  <CHEMICAL_SMILES>
COc1ccc(-c2cc(=O)n(-c3cccc(Cl)c3)c(N3CCCC3)c2/N=N/c2ccc(Cl)cc2[N+](=O)[O-])cc1

>  <MIC>
250 µg/mL

$$$$
>  <CHEMICAL_SMILES>
COc1ccc(-c2cc(N3CCCC3)n(-c3cccc(Cl)c3)c(=O)c2/N=N/c2ccc([N+](=O)[O-])cc2)cc1

>  <MIC>
250 µg/mL

$$$$
>  <CHEMICAL_SMILES>
COc1ccc(-c2cc(=O)n(-c3cccc(Cl)c3)c(N3CCCC3)c2/N=N/c2cccc(Cl)c2)cc1

>  <MIC>
100 µg/mL

$$$$
>  <CHEMICAL_SMILES>
COc1ccc(-c2cc(N3CCCC3)n(-c3cccc(Cl)c3)c(=O)c2/N=N/c2ccccc2Cl)cc1

>  <MIC>
250 µg/mL

$$$$

Query: Quick one: give measured MIC for COc1ccc(-c2cc(=O)n(-c3cccc(Cl)c3)c(N3CCCC3)c2/N=N/c2ccccc2Cl)cc1
Reply: 250 µg/mL

Query: Quick one: give measured MIC for COc1ccc(-c2cc(N3CCCC3)n(-c3cccc(Cl)c3)c(=O)c2/N=N/c2cccc(Cl)c2)cc1
Reply: 100 µg/mL

Query: Quick one: give measured MIC for COc1ccc(-c2cc(N3CCCC3)n(-c3cccc(Cl)c3)c(=O)c2/N=N/c2ccc([N+](=O)[O-])cc2Cl)cc1
Reply: 200 µg/mL
